Test system: Candida tropicalis
Experiment: In vitro evaluation of minimum inhibitory concentration against Candida tropicalis 2.11
Assay type: functional
Conditions: Candida tropicalis; read-out: MIC
Documented MIC across a set of compounds

Solved cases below.
>  <compound>
C[C@@H](NC(=O)c1ccc(C(F)(F)F)cc1)[C@](O)(Cn1cncn1)c1ccc(F)cc1F

>  <result-value>
80 µg/mL

$$$$
>  <compound>
C[C@H]1N(C(=O)c2ccc(OCC(F)(F)C(F)F)cc2)CC(=O)O[C@@]1(Cn1cncn1)c1ccc(F)cc1F (racemic)

>  <result-value>
> 80 µg/mL

$$$$
>  <compound>
C[C@H]1N(C(=O)c2ccc(C(F)(F)F)cc2)C[C@H](O)O[C@@]1(Cn1cncn1)c1ccc(F)cc1F (racemic)

>  <result-value>
> 80 µg/mL

$$$$

Now consider the entry below.
Request: Could you tell me which MIC is on file for C[C@H]1N(C(=O)c2ccc(C(F)(F)F)cc2)CCO[C@@]1(Cn1cncn1)c1ccc(F)cc1F (stereo in doubt) ?
Response: > 80 µg/mL

###

Tested on: Meyerozyma guilliermondii
Test: Evaluation of In vitro antifungal activity against Candida guilliermondii 26 by broth macro dilution method
Type: functional
# reported MFC; entries follow
The reply should be a number in µg/mL, with the unit left off.

>  <molecule>
CC(=O)N1CCN(c2ccc(OC[C@H]3CO[C@](Cn4ccnc4)(c4ccc(Cl)cc4Cl)O3)cc2)CC1

>  <MFC / µg/mL>
4

$$$$

Request: Item C[C@@H](NC(=O)c1ccc(C(F)(F)F)cc1)[C@](O)(Cn1cncn1)c1ccc(F)cc1F has what recorded MFC?
Response: 4

###

Recorded MIC values for a group of compounds are listed next.
Test system: Candida albicans
Test: Evaluation of In vitro antifungal activity against Candida albicans 76 by broth macro dilution method
Format: functional
Numbers only; they are read as µg/mL.

Request: Hi! What's the reported MIC for OC(Cn1cncn1)(Cn1cncn1)c1ccc(F)cc1F on Candida albicans?
Response: 0.25

Request: GET /values?readout=MIC&system=Candida albicans&item= C[C@H]1N(C(=O)c2ccc(C(F)(F)F)cc2)CCO[C@@]1(Cn1cncn1)c1ccc(F)cc1F (stereo in doubt; (-)-41)
Response: 0.125

Request: Query the reported MIC for Candida albicans; item: C[C@H]1N(C(=O)c2ccc(C(F)(F)F)cc2)C[C@H](O)O[C@@]1(Cn1cncn1)c1ccc(F)cc1F (stereo in doubt; (-)-39a)
Response: 1

###

The following molecules are listed with their measured MFC values.
System: Candida albicans
Experiment: Evaluation of In vitro antifungal activity against Candida albicans C56 by broth macro dilution method
Format: functional

Would you please look over these solved cases?
>  <molecule>
C[C@H]1N(C(=O)c2ccc(C(F)(F)F)cc2)CCO[C@@]1(Cn1cncn1)c1ccc(F)cc1F (stereo in doubt; (-)-41)

>  <MFC>
> 64 µg/mL

$$$$
>  <molecule>
C[C@@H](NC(=O)c1ccc(C(F)(F)F)cc1)[C@](O)(Cn1cncn1)c1ccc(F)cc1F

>  <MFC>
> 64 µg/mL

$$$$
>  <molecule>
CC(=O)N1CCN(c2ccc(OC[C@H]3CO[C@](Cn4ccnc4)(c4ccc(Cl)cc4Cl)O3)cc2)CC1

>  <MFC>
> 16 µg/mL

$$$$
>  <molecule>
C[C@H]1N(C(=O)c2ccc(C(F)(F)F)cc2)C[C@H](O)O[C@@]1(Cn1cncn1)c1ccc(F)cc1F (stereo in doubt; (-)-39a)

>  <MFC>
> 64 µg/mL

$$$$

Request: Tell me the measured MFC of OC(Cn1cncn1)(Cn1cncn1)c1ccc(F)cc1F , please.
Response: > 64 µg/mL

###

Below, each entry is listed with its recorded Survival.
Tested on: Mus sp.
Experiment: In vivo evaluation of % survival rate after peroral administration on 9th day at dose 1 mg/kg
Assay type: functional
Settings: route oral, 1 mg/kg
Expressed in %, but write only the number.

>  <compound>
C[C@H]1N(C(=O)c2ccc(C(F)(F)F)cc2)CCO[C@@]1(Cn1cncn1)c1ccc(F)cc1F (racemic)

>  <value-unit>
%

>  <Survival>
0

$$$$
>  <compound>
C[C@H]1N(C(=O)c2ccc(C(F)(F)F)cc2)CC(=O)O[C@@]1(Cn1cncn1)c1ccc(F)cc1F (racemic)

>  <value-unit>
%

>  <Survival>
0

$$$$
>  <compound>
C[C@H]1N(C(=O)c2ccc(C(F)(F)F)cc2)CCO[C@@]1(Cn1cncn1)c1ccc(F)cc1F (stereo in doubt; (-)-41)

>  <value-unit>
%

>  <Survival>
70

$$$$
>  <compound>
C[C@H]1N(C(=O)c2ccc(C(F)(F)F)cc2)C[C@H](O)O[C@@]1(Cn1cncn1)c1ccc(F)cc1F (stereo in doubt; (-)-39a)

>  <value-unit>
%

>  <Survival>
100

$$$$
>  <compound>
C[C@H]1N(C(=O)c2ccc(C(F)(F)F)cc2)CC(=O)O[C@@]1(Cn1cncn1)c1ccc(Cl)cc1Cl (stereo in doubt; (+)-32a)

>  <value-unit>
%

>  <Survival>
0

$$$$
>  <compound>
C[C@H]1N(C(=O)c2ccc(C(F)(F)F)cc2)CCO[C@@]1(Cn1cncn1)c1ccc(F)cc1F (stereo in doubt)

>  <value-unit>
%

>  <Survival>
100

$$$$

Now for another entry.
Request: # input compound: C[C@H]1N(C(=O)c2ccc(C(F)(F)F)cc2)CC(=O)O[C@@]1(Cn1cncn1)c1ccc(Cl)cc1Cl (racemic) ; wanted: its Survival
Response: 45

###

// reported Survival per item
Tested on: Mus sp.
Test: In vivo evaluation of % survival rate after peroral administration on 5th day at dose 1 mg/kg
Assay type: functional
Settings: route oral, 1 mg/kg
Field format: number, assumed %, no unit text.

These solved cases illustrate the format of a correct answer.
>  <molecule>
C[C@H]1N(C(=O)c2ccc(C(F)(F)F)cc2)CC(=O)O[C@@]1(Cn1cncn1)c1ccc(Cl)cc1Cl (stereo in doubt; (+)-32a)

>  <Survival (%)>
0

$$$$
>  <molecule>
C[C@H]1N(C(=O)c2ccc(C(F)(F)F)cc2)CCO[C@@]1(Cn1cncn1)c1ccc(F)cc1F (stereo in doubt)

>  <Survival (%)>
100

$$$$
>  <molecule>
C[C@H]1N(C(=O)c2ccc(C(F)(F)F)cc2)CC(=O)O[C@@]1(Cn1cncn1)c1ccc(Cl)cc1Cl (stereo in doubt; (-)-32a)

>  <Survival (%)>
100

$$$$
>  <molecule>
C[C@H]1N(C(=O)c2ccc(C(F)(F)F)cc2)CC(=O)O[C@@]1(Cn1cncn1)c1ccc(F)cc1F

>  <Survival (%)>
100

$$$$
>  <molecule>
C[C@H]1N(C(=O)c2ccc(C(F)(F)F)cc2)CC(=O)O[C@@]1(Cn1cncn1)c1ccc(Cl)cc1Cl (racemic)

>  <Survival (%)>
80

$$$$
>  <molecule>
C[C@H]1N(C(=O)c2ccc(C(F)(F)F)cc2)CCO[C@@]1(Cn1cncn1)c1ccc(F)cc1F (racemic)

>  <Survival (%)>
70

$$$$

Request: Dear colleague, I am looking for the recorded Survival of the following molecule: C[C@H]1N(C(=O)c2ccc(C(F)(F)F)cc2)C[C@H](O)O[C@@]1(Cn1cncn1)c1ccc(F)cc1F (racemic)
Response: 85

###

System: Meyerozyma guilliermondii
Test: In vitro evaluation of minimum inhibitory concentration against Candida guilliermondii 26
Assay type: functional
test-readout: MIC (µg/mL)
Just the number please, in µg/mL, no unit attached.

Worked cases, answers included:
>  <compound>
C[C@H]1N(C(=O)c2ccc(C(F)(F)F)cc2)CCO[C@@]1(Cn1cncn1)c1ccc(F)cc1F (racemic)

>  <value-unit>
µg/mL

>  <result-value>
80

$$$$
>  <compound>
C[C@@H](NC(=O)c1ccc(C(F)(F)F)cc1)[C@](O)(Cn1cncn1)c1ccc(F)cc1F (racemic)

>  <value-unit>
µg/mL

>  <result-value>
2.5

$$$$

Then there is this compound:
Request: Consider the compound shown here: C[C@H]1N(C(=O)c2ccc(C(F)(F)F)cc2)CCO[C@@]1(Cn1cncn1)c1ccc(F)cc1F (stereo in doubt; (-)-41) What is its recorded MIC?
Response: 20

###

Let's look at some molecules and their measured MIC.
Tested on: Meyerozyma guilliermondii
Assay: In vitro evaluation of minimum inhibitory concentration against Candida guilliermondii 26
Assay type: functional

>  <molecule>
C[C@H]1N(C(=O)c2ccc(C(F)(F)F)cc2)C[C@H](O)O[C@@]1(Cn1cncn1)c1ccc(F)cc1F (racemic)

>  <MIC>
>80 µg/mL

$$$$
>  <molecule>
C[C@H]1N(C(=O)c2ccc(C(F)(F)F)cc2)CC(=O)O[C@@]1(Cn1cncn1)c1ccc(Cl)cc1Cl (stereo in doubt; (+)-32a)

>  <MIC>
>80 µg/mL

$$$$

As a next step, examine the molecule that follows.
Request: Param item = C[C@@H](NC(=O)c1ccc(C(F)(F)F)cc1)[C@](O)(Cn1cncn1)c1ccc(F)cc1F ; retrieve measured MIC.
Response: 0.63 µg/mL
